target: PI3K α (Homo sapiens); construct: purchased Upstate; experiment: In vitro IC50, PI3K α (p110α/p85α inhibition assay); format: biochemical; settings: in vitro kinase assay; read-out: IC50(nM) PI3K α
Sequence (P42336 whole entry): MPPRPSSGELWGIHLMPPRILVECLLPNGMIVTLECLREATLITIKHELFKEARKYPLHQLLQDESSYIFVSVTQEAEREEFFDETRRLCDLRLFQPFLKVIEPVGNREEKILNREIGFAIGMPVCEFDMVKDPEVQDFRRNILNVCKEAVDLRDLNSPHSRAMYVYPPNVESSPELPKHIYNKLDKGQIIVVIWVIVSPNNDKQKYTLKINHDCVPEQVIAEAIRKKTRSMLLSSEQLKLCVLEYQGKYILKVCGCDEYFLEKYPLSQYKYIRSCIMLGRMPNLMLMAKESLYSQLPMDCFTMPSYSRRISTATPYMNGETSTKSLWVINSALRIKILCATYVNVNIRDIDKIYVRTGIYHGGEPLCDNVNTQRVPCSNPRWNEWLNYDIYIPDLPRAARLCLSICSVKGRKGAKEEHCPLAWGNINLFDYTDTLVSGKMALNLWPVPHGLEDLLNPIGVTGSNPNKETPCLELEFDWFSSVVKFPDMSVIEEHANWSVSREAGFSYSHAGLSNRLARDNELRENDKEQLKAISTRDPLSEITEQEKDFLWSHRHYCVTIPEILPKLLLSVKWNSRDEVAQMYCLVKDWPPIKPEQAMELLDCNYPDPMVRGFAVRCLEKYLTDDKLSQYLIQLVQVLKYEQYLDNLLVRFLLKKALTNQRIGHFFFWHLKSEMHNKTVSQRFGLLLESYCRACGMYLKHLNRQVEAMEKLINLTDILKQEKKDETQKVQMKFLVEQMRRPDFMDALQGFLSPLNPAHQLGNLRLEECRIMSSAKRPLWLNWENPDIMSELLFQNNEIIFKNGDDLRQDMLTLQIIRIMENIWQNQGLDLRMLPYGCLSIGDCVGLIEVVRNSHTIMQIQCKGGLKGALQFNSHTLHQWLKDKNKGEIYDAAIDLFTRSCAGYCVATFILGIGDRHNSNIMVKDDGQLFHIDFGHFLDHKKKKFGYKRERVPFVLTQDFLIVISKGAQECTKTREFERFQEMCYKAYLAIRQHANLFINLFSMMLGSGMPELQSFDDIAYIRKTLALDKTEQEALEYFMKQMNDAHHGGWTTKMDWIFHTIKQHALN
Sequence (P27986 whole entry partner): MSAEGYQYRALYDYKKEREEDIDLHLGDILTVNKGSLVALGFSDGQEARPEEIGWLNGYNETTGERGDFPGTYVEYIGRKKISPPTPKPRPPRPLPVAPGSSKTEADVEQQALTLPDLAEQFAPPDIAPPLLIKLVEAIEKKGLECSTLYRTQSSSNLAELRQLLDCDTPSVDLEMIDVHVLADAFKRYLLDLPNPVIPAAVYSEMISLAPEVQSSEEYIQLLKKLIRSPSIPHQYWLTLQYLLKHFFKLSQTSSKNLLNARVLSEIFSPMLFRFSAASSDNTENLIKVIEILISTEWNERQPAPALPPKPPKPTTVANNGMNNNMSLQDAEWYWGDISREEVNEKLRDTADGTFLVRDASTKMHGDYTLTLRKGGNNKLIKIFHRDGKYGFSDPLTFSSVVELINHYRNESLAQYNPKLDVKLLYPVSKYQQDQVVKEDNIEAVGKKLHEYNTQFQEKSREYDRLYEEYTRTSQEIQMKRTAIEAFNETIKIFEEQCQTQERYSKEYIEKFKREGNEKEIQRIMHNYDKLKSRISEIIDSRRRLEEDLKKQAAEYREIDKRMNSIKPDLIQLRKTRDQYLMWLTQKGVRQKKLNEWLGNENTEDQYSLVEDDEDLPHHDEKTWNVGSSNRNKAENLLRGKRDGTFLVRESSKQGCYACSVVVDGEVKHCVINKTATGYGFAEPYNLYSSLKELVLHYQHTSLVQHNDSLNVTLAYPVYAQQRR
assay-metric: IC50

get_value(item= `Cc1cccc2cc(Cn3nc(-c4cn[nH]c4)c4c(N)ncnc43)nc(OC3CCNCC3)c12` , readout=IC50) returns > 10000 nM

Field IC50 (entry `C[C@H](Nc1ncnc2[nH]cnc12)c1cc2cccc(Cl)c2c(CCN2CC(F)(F)C2)n1` ) reads < 10000 nM

Notebook: `Nc1nc2cc(-c3nn(Cc4cc5ccccc5c(N5CCCC5)n4)c4ncnc(N)c34)ccc2o1` , IC50 read as < 1000 nM

Measured IC50, `C[C@H](Nc1ncnc2[nH]cnc12)c1cc2cccc(Cl)c2c(N2CCN(S(C)(=O)=O)C[C@H]2C)n1` : > 10000 nM

The value of IC50 measured for the molecule `Cc1cccc2cc(CN(C)c3ncnc4[nH]cnc34)nc(OC3CCN(C(C)C)CC3)c12` turned out to be > 10000 nM

For Cc1cccc2cc(C(C)Nc3ncnc4[nH]cnc34)nc(CCN3CCN(C)CC3)c12 (centres unmarked) the molecule record lists IC50 as > 10000 nM

So, `CS(=O)(=O)N1CCN(c2nc(Cn3nc(-c4cn[nH]c4)c4c(N)ncnc43)cc3cccc(Cl)c23)CC1` ? Its IC50 was < 10000 nM

====

molecular target: PI3K γ (Homo sapiens, UniProt P48736); construct: purchased Sigma; assay: In vitro IC50, PI3K γ (p110γ inhibition assay); assay type: biochemical; conditions: in vitro kinase assay
Sequence (P48736 whole entry): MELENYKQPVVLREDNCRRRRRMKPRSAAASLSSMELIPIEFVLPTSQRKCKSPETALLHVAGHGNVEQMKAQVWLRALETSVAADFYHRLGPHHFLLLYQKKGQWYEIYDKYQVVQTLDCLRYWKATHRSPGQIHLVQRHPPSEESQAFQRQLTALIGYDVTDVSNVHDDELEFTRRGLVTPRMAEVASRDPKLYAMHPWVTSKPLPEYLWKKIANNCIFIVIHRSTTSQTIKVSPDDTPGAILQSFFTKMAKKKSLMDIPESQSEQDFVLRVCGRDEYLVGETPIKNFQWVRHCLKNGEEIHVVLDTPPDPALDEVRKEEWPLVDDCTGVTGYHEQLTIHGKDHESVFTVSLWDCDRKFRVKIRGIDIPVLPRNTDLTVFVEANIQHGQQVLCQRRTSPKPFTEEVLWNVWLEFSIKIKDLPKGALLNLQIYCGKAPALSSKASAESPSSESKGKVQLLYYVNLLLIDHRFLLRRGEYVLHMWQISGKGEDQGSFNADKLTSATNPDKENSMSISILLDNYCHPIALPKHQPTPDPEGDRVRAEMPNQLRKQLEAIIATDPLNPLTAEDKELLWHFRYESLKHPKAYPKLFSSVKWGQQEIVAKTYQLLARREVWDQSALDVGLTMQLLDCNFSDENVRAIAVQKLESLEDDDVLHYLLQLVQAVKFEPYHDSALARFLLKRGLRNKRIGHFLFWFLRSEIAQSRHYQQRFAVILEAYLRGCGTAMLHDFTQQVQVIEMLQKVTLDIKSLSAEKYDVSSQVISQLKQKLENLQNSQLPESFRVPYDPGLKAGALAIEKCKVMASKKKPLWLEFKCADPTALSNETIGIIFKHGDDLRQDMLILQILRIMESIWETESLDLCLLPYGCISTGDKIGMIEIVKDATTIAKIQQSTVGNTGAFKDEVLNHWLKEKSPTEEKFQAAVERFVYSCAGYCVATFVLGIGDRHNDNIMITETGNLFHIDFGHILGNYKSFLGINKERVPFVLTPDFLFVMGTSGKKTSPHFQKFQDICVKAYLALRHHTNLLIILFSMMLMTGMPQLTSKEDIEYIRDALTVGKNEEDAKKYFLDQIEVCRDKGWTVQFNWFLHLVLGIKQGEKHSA
assay-metric: IC50

> print(dat)
                                   compound  assay.metric       value
1  CC(Nc1ncnc2[nH]cnc12)c1cc2cccc(Cl)c2c(CCN2CCCC2)n1 (stereo not drawn) [Compound 79]          IC50  < 10000 nM
2  CC(Nc1ncnc2[nH]cnc12)c1cc2ccccc2c(OC2CCN(S(C)(=O)=O)CC2)n1 (stereo not drawn) [Compound 53]          IC50  > 10000 nM
3  Cc1cccc2cc(Cn3nc(-c4cn[nH]c4)c4c(N)ncnc43)nc(OC3CCN(C)CC3)c12 [Compound 3]          IC50  > 10000 nM
4  C[C@H](Nc1ncnc2[nH]cnc12)c1cc2cccc(Cl)c2c(OC2CCN(S(C)(=O)=O)CC2)n1 [Compound 60]          IC50  < 10000 nM
5  CC(Nc1ncnc2[nH]cnc12)c1cc2cccc(Cl)c2c(CCN2CCOCC2)n1 (stereo not drawn) [Compound 78]          IC50  < 10000 nM

compound CCN(Cc1cc2cccc(C)c2c(OC2CCN(C(C)C)CC2)n1)c1ncnc2[nH]cnc12 [Compound 11] , IC50 observed: > 10000 nM

What the record says about Cc1cccc2cc(Cn3nc(-c4ccc5nc(N)sc5c4)c4c(N)ncnc43)nc(OC(C)C)c12 [Compound 31] : IC50 is < 100 nM

Measured IC50 of Cc1cccc2cc(C(C)Nc3ncnc4[nH]cnc34)nc(NCCN3CCOCC3)c12 (stereo not drawn) [Compound 42] : > 10000 nM

Lab book: IC50 of C[C@H](Nc1ncnc2[nH]cnc12)c1cc2cccc(Cl)c2c(CCN2CCC(F)(F)C2)n1 [Compound 91] noted as < 10000 nM

====

molecular target: PI3K γ (Homo sapiens, UniProt P48736); construct: purchased Sigma; test: In vitro IC50, PI3K γ (p110γ inhibition assay); format: biochemical; settings: in vitro kinase assay
assay-metric: IC50

Examples from the recorded data:
> print(dat)
                                   compound                      target.under.test  assay.metric       value
1  C[C@H](Nc1ncnc2[nH]cnc12)c1cc2cccc(Cl)c2c(N2CCN(S(C)(=O)=O)C[C@@H]2C)n1  PI3K γ (Homo sapiens, UniProt P48736)          IC50    < 100 nM
2  C[C@H](Nc1ncnc2[nH]cnc12)c1cc2cccc(Cl)c2c(CCN2CCCC2)n1  PI3K γ (Homo sapiens, UniProt P48736)          IC50  < 10000 nM

Measured IC50 of CC(Nc1ncnc2[nH]cnc12)c1cc2cccc(Cl)c2c(CCN2CCN(S(C)(=O)=O)CC2)n1 (stereo not drawn) : < 10000 nM

IC50 reading for `C[C@H](Nc1ncnc2[nH]cnc12)c1cc2cccc(Cl)c2c(CCN2CC(F)(F)C2)n1` : < 1000 nM

Entry under test: `Cc1cccc2cc(Cn3nc(-c4cn[nH]c4)c4c(N)ncnc43)nc(OC3CCNCC3)c12` . Its IC50 was > 10000 nM

====

Measured IC50 values are reported for all entries that follow.
molecular target: PI3K γ (Homo sapiens); construct: purchased Sigma; assay: In vitro IC50, PI3K γ (p110γ inhibition assay); format: biochemical; settings: in vitro kinase assay

> print(dat)
                                   compound      target.under.test       value
1  CC(=O)N1CCN(c2nc([C@H](C)Nc3ncnc4[nH]cnc34)cc3cccc(Cl)c23)CC1  PI3K γ (Homo sapiens)  > 10000 nM

Per the record, CC(Nc1ncnc2[nH]cnc12)c1cc2ccccc2c(OC2CCN(C)CC2)n1 (centres unmarked) has IC50 of > 10000 nM

`C[C@H](Nc1ncnc2[nH]cnc12)c1cc2cccc(Cl)c2c(N2CCN(S(C)(=O)=O)C[C@H]2C)n1` yielded IC50 of < 1000 nM

Short answer for `C[C@H](Nc1ncnc2[nH]cnc12)c1cc2cccc(Cl)c2c(N(C)C)n1` : IC50 was < 1000 nM

Lab book: IC50 of Cc1cccc2cc(C(C)Nc3ncnc4[nH]cnc34)nc(CCN3CCOCC3)c12 (centres unmarked) noted as < 10000 nM

====

biological target: PI3K δ (Homo sapiens); construct: purchased Upstate; assay: In vitro IC50, PI3K δ (p110δ/p85α inhibition assay); assay type: biochemical; conditions: in vitro kinase assay; read-out: IC50(nM) PI3K δ
Sequence (O00329 whole entry, one chain of several): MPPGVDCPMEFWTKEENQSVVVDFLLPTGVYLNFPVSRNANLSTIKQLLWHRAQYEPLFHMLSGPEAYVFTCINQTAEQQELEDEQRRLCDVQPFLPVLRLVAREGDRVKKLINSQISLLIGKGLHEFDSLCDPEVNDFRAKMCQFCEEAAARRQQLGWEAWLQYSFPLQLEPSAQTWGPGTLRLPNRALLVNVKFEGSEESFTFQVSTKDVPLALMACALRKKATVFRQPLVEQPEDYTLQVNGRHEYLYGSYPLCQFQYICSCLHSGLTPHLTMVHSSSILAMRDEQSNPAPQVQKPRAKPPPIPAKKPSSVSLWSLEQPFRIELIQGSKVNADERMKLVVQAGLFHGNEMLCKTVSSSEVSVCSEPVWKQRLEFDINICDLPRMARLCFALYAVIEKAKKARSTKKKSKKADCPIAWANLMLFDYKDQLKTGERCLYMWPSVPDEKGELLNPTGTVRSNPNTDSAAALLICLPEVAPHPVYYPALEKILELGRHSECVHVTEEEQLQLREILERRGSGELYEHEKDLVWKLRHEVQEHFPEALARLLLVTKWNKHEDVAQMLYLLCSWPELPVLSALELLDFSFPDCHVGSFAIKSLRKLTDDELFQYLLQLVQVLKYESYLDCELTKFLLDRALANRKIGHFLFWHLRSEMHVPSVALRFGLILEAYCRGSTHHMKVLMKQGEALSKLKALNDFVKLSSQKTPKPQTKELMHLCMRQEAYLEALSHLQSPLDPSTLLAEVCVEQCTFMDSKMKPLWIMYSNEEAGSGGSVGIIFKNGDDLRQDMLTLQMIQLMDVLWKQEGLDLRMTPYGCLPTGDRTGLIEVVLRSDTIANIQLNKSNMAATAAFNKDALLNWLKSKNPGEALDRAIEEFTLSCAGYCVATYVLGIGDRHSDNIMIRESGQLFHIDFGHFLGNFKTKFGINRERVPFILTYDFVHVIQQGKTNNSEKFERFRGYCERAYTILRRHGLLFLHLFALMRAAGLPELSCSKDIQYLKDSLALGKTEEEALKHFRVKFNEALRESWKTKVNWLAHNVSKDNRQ
List of IC50 values.

Example results:
> print(dat)
                                   compound  assay.metric       value
1  C[C@@H](Nc1ncnc2[nH]cnc12)c1cc2cccc(Cl)c2c(OC2CCN(S(C)(=O)=O)CC2)n1 [Compound 84]          IC50   < 1000 nM
2  CC(Nc1ncnc2[nH]cnc12)c1cc2ccccc2c(OC2CCNCC2)n1 (stereo not shown) [Compound 22]          IC50  < 10000 nM
3  Nc1nc2cc(-c3nn(Cc4cc5ccccc5c(N5CCCC5)n4)c4ncnc(N)c34)ccc2o1 [Compound 1]          IC50    < 100 nM
4  C[C@H](Nc1ncnc2[nH]cnc12)c1nc(N2CCN(S(C)(=O)=O)CC2)c2c(Cl)cccc2n1 [Compound 94]          IC50   < 1000 nM
5  Cc1cccc2cc(C(C)Nc3ncnc4[nH]cnc34)nc(NC3CCN(C)CC3)c12 (stereo not shown) [Compound 41]          IC50   < 1000 nM
6  C[C@H](Nc1ncnc2[nH]cnc12)c1cc2cccc(Cl)c2c(CCN2CCCC2)n1 [Compound 90]          IC50    < 100 nM
7  CN1CCC(Oc2nc(Cn3nc(-c4cn[nH]c4)c4c(N)ncnc43)cc3cccc(Cl)c23)CC1 [Compound 55]          IC50    < 100 nM
8  Cc1cccc2cc([C@H](C)Nc3ncnc4[nH]cnc34)nc(OC3CCN(S(C)(=O)=O)CC3)c12 [Compound 61]          IC50   < 1000 nM

Lookup result for C[C@H](Nc1ncnc2[nH]cnc12)c1cc2cccc(Cl)c2c(OCC2CCN(C)CC2)n1 [Compound 73] ; measured IC50: < 100 nM

// field: IC50; key: Cc1cccc2cc(Cn3nc(-c4cn[nH]c4)c4c(N)ncnc43)nc(N3CCN(C)CC3)c12 [Compound 18] ; value = < 100 nM

Form field IC50, entry Cc1cccc2cc(C(C)Nc3ncnc4[nH]cnc34)nc(CCN3CCOCC3)c12 (stereo not shown) [Compound 38] : < 100 nM

Measured IC50, Cc1cccc2cc(C(C)Nc3ncnc4[nH]cnc34)nc(OC3CCOCC3)c12 (stereo not shown) [Compound 40] : < 1000 nM

IC50 reported for this compound C[C@H](Nc1ncnc2[nH]cnc12)c1cc2cccc(Cl)c2c(N2CCOCC2)n1 [Compound 62] : < 1000 nM

# IC50 of Cc1cccc2cc(Cn3nc(-c4cn[nH]c4)c4c(N)ncnc43)nc(OC3CCN(C(C)C)CC3)c12 [Compound 13] = < 100 nM

The measured IC50 associated with Cc1cccc2cc(Cn3nc(-c4ccc5oc(N)nc5c4)c4c(N)ncnc43)nc(Oc3ccccc3)c12 [Compound 34] reads < 10000 nM

Form field IC50, entry Cc1cccc2cc(C(C)Nc3ncnc4[nH]cnc34)nc(NCCN3CCOCC3)c12 (stereo not shown) [Compound 42] : < 100 nM
